# System Name: Acetylcholinesterase (Homo sapiens)
# Procedure Summary: Acetylcholinesterase (AChE) small molecule antagonists: enzyme-based qHTS assay (AID 1347397); also: nearly all actives have a fitted effect of over 55% in size
# Applied Conditions: AChE enzyme activity inhibition; series mostly up to 115 µM
Active and inactive are the calls of the source. Calls follow the shape of the full dose curve.
Classes used: class 1 for active, class 0 for inactive

> print(dat)
                                    compound                          system.name    label
 1                     Cc1c[nH]c(=O)[nH]c1=O  Acetylcholinesterase (Homo sapiens)  class 0
 2       CCC(C)c1ccccc1O (centres undefined)  Acetylcholinesterase (Homo sapiens)  class 0
 3                               CCCCCC(N)=O  Acetylcholinesterase (Homo sapiens)  class 0
 4          Cc1ccnc(NS(=O)(=O)c2ccc(N)cc2)n1  Acetylcholinesterase (Homo sapiens)  class 0
 5                     O=C=Nc1ccc(Cl)c(Cl)c1  Acetylcholinesterase (Homo sapiens)  class 0
 6           CC(=O)C(C)O (centres undefined)  Acetylcholinesterase (Homo sapiens)  class 0
 7              NC(=O)N1c2ccccc2C=Cc2ccccc21  Acetylcholinesterase (Homo sapiens)  class 0
 8  CC1=CC(=O)CC(C)(C)C1(O)/C=C/C(C)=C\C(=O)O (centres undefined)  Acetylcholinesterase (Homo sapiens)  class 0
 9                CNC(=O)Oc1cc(C)c(SC)c(C)c1  Acetylcholinesterase (Homo sapiens)  class 1
10                  CCOC(=O)CCCCCCCCC(=O)OCC  Acetylcholinesterase (Homo sapiens)  class 0
11  Nc1ccn([C@@H]2O[C@H](CO)[C@@H](O)C2O)c(=O)n1 (some centres undefined)  Acetylcholinesterase (Homo sapiens)  class 0
12                            O=C1C=CC(=O)O1  Acetylcholinesterase (Homo sapiens)  class 0
13                O=C(O)c1cc2ccccc2nc1C(=O)O  Acetylcholinesterase (Homo sapiens)  class 0
14                            CC(C)CC(C)(C)C  Acetylcholinesterase (Homo sapiens)  class 0
15                CC(C)OC(=O)CCCCC(=O)OC(C)C  Acetylcholinesterase (Homo sapiens)  class 0
16                                   CCCCNCC  Acetylcholinesterase (Homo sapiens)  class 0
17              O=c1[nH]c(=O)c2cn[nH]c2[nH]1  Acetylcholinesterase (Homo sapiens)  class 0
18                    O=C(O)c1ccc(C(=O)O)cc1  Acetylcholinesterase (Homo sapiens)  class 0
19             O=C(Oc1ccccc1)c1ccc2ccccc2c1O  Acetylcholinesterase (Homo sapiens)  class 0
20                          COc1cc(O)cc(O)c1  Acetylcholinesterase (Homo sapiens)  class 0
21    COc1ccc(C(c2ccc(OC)cc2)C(Cl)(Cl)Cl)cc1  Acetylcholinesterase (Homo sapiens)  class 0
22             O=C(Oc1ccccc1C(=O)O)c1ccccc1O  Acetylcholinesterase (Homo sapiens)  class 0
23  CCCCCCC(CCCCCCCCCCC(=O)OCC(COC(C)=O)OC(C)=O)OC(C)=O (centres undefined)  Acetylcholinesterase (Homo sapiens)  class 0
24  Nc1nc2ncc(CNc3ccc(C(=O)N[C@@H](CCC(=O)O)C(=O)O)cc3)nc2c(=O)[nH]1  Acetylcholinesterase (Homo sapiens)  class 0
25                           CSc1ccc(C=O)cc1  Acetylcholinesterase (Homo sapiens)  class 0
26                       CCCCCCCCCCCCCCCCCCO  Acetylcholinesterase (Homo sapiens)  class 0
27            OC1OCCOC1O (centres undefined)  Acetylcholinesterase (Homo sapiens)  class 0
28    NC(=O)C(=O)N/N=C/c1ccc([N+](=O)[O-])o1  Acetylcholinesterase (Homo sapiens)  class 0
29  Cc1oc(-c2ccccc2)nc1CCOc1ccc(C[C@H](Nc2ccccc2C(=O)c2ccccc2)C(=O)O)cc1  Acetylcholinesterase (Homo sapiens)  class 1

---

# Procedure Summary: qHTS assay to identify small molecule antagonists of the glucocorticoid receptor (GR) signaling pathway - cell viability counter screen (AID 720693); also: nearly all actives have a fitted effect of over 55% in size
# Applied Conditions: GR-bla HeLa viability, CellTiter-Glo luminescence, 18 h, with 5 nM dexamethasone present; series mostly up to 58.5 µM
Inconclusive results are not listed. Calls of active or inactive are those of the source. The call rests on the fitted dose curve; in most records, active means well fitted cell-killing curve with a large enough effect in the repeat runs; inconclusive means weak or mixed curves, or effect the other way; inactive means no such curve, though single readings can be large or run the other way.
Outcome codes: active, inactive

> print(dat)
                                    compound     label
 1  COC1=CC=C2[C@H]3Cc4ccc(OC)c5c4[C@@]2(CCN3C)[C@H]1O5  inactive
 2  CC(C)NC(C)Cc1ccc(I)cc1 (stereo unspecified)  inactive
 3         Cc1ccccc1-n1c(CF)nc2ccc(N)cc2c1=O  inactive
 4  CC1(C)[C@H](C=C(Cl)Cl)[C@H]1C(=O)OCc1c(F)c(F)cc(F)c1F  inactive
 5                          CN1CSC(=S)N(C)C1  inactive
 6  C=CC[C@]1(O)CC[C@H]2[C@@H]3CCC4=CCCC[C@@H]4[C@H]3CC[C@@]21C  inactive
 7                    CC(C)C[C@H](CN)CC(=O)O  inactive
 8                   CCCSc1cc(OC)c(CCN)cc1OC  inactive
 9  CC(=O)[C@@]1(O)CC[C@H]2[C@@H]3CCC4=CC(=O)CC[C@]4(C)C3(F)[C@@H](O)C[C@@]21C (stereo partly specified)  inactive
10  COC(=O)[C@]12CCC(C)(C)C[C@H]1[C@H]1C(=O)C=C3[C@@]4(C)C=C(C#N)C(=O)C(C)(C)[C@@H]4CC[C@@]3(C)[C@]1(C)CC2    active
11       CCCCCN(C)CCC(O)(P(=O)(O)O)P(=O)(O)O  inactive

---

# System Name: Progesterone receptor (Homo sapiens)
# Procedure Summary: qHTS assay to identify small molecule antagonists of the progesterone receptor (PR) signaling pathway (AID 1346795); also: potency is read from the fitted curve at half-maximal effect
# Applied Conditions: PR-UAS-bla HEK293T, beta-lactamase FRET ratio, 16 h; series mostly up to 92.4 µM
Records with an inconclusive call do not appear. Activity calls are given as the source filed them. Calls come from the whole dose curve; as a rule, active = well fitted inhibition curve with a large enough effect in the signal ratio in the repeat runs (not every such curve was filed as active); inconclusive = weak or mixed curves; inactive = flat fitted curve, though single readings scatter; the % refers to the signal ratio.
Observable: Potency

> print(dat)
                                   molecule  observable             value
1                     Clc1ccccc1-c1ccccc1Cl     Potency          inactive
2  c1ccc2c(c1)Sc1ccccc1N2CC1CN2CCC1CC2 (configuration not stated)     Potency  26.6 µM (active)
3                            CCN(CC)C(=O)Cl     Potency          inactive
4  OC(Cc1ccccc1Cl)(Cn1[nH]cnc1=S)C1(Cl)CC1 (configuration not stated)     Potency  24.3 µM (active)
5  CC1COC(Cn2cncn2)(c2ccc(Oc3ccc(Cl)cc3)cc2Cl)O1 (configuration not stated)     Potency  24.3 µM (active)
6                CNC(=O)Oc1cc(C)c(SC)c(C)c1     Potency  27.3 µM (active)
7  O=C1C(I)=CC(=C(c2cc(I)c(O)c(I)c2)c2ccccc2C(=O)O)C=C1I     Potency  29.8 µM (active)

---

# System Name: Acetylcholinesterase (Homo sapiens)
# Procedure Summary: Acetylcholinesterase (AChE) small molecule antagonists: enzyme-based qHTS assay with human liver microsomes (AID 1347399); also: % is scaled to controls: 0 for no effect and ±100 for the full control effect; nearly all actives have a fitted effect of over 60% in size
# Applied Conditions: qHTS inhibition; series mostly up to 115 µM
Activity calls are given as the source filed them. The call rests on the fitted dose curve.
Observable: outcome

> print(dat)
                                    compound                          system.name     value
 1                                   NC(N)=O  Acetylcholinesterase (Homo sapiens)  inactive
 2  O=S(=O)(O)c1ccc(N=Nc2c(O)ccc3cc(S(=O)(=O)O)ccc23)cc1  Acetylcholinesterase (Homo sapiens)  inactive
 3                            CC(C)Cc1ccccc1  Acetylcholinesterase (Homo sapiens)  inactive
 4                     O=S(=O)(O)CCCN1CCOCC1  Acetylcholinesterase (Homo sapiens)  inactive
 5                                    OB(O)O  Acetylcholinesterase (Homo sapiens)  inactive
 6                       CCOC(=O)c1ccc(N)cc1  Acetylcholinesterase (Homo sapiens)  inactive
 7  CC(C=O)Cc1ccc(C(C)(C)C)cc1 (stereo not given)  Acetylcholinesterase (Homo sapiens)  inactive
 8                                  C1CCCCC1  Acetylcholinesterase (Homo sapiens)  inactive
 9                     CC(C)(CCC(=O)O)C(=O)O  Acetylcholinesterase (Homo sapiens)  inactive
10                          O=C(O)CP(=O)(O)O  Acetylcholinesterase (Homo sapiens)  inactive
11  CC(CC(C#N)(c1ccccc1)C(C)C)N(C)C (stereo not given)  Acetylcholinesterase (Homo sapiens)  inactive
12  O=C(O)[C@H](O)[C@@H](O)[C@H](O[C@@H]1O[C@H](CO)[C@H](O)[C@H](O)[C@H]1O)[C@H](O)CO  Acetylcholinesterase (Homo sapiens)  inactive
13                        CNc1c2c(nn1C)CCCC2  Acetylcholinesterase (Homo sapiens)  inactive
14                           CC(C)CCOCCC(C)C  Acetylcholinesterase (Homo sapiens)  inactive
15                     CCOC(=O)/C=C/c1ccccc1  Acetylcholinesterase (Homo sapiens)  inactive
